Reference source for all entries: ChEMBL document CHEMBL1123848

- measured on: Beta-2 adrenergic receptor (Cavia porcellus, UniProt Q8K4Z4)
- Sequence (Q8K4Z4 whole entry): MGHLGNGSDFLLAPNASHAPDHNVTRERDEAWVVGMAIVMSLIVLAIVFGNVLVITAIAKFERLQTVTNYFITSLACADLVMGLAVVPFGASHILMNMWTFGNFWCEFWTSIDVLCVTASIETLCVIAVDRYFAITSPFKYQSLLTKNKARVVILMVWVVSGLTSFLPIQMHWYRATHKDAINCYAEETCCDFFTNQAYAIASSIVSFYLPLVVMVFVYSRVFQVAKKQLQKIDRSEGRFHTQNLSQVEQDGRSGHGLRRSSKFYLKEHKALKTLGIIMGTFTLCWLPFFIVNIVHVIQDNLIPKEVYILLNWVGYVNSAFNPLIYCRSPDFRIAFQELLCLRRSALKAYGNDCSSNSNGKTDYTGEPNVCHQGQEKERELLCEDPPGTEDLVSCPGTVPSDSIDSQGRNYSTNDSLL
- experiment description: Antagonist activity against beta-2 adrenergic receptor in isolated guinea pig trachea
- Type: functional, tissue-based
- condition summary: read-out: pA2 (converted)
observation type: Kb (µM)

molecule | observation type | units symbol | readout value
CCC(=O)OCC(O)CNC(C)(C)C (stereo not drawn) | Kb | µM | 26.3
CC(C)NCC(O)COC(=O)c1cccs1 (stereo not drawn) | Kb | µM | 0.468
CC(C)NCC(O)COC(=O)Cc1cccs1 (stereo not drawn) | Kb | µM | 10
CC(C)(C)NCC(O)COC(=O)C1CCCCC1 (stereo not drawn) | Kb | µM | 2.51
CC(C)NCC(O)COC(=O)C(C)C (stereo not drawn) | Kb | µM | 4.27

[a] CC(C)NCC(O)COC(=O)C1CCCCC1 (stereo not drawn)
[b] CC(C)C(=O)OCC(O)CNC(C)(C)C (stereo not drawn)
-- ask For the pair a and b , which member has the lower Kb number? Output the label that corresponds to your choice.
-- reply a

---

- measured on: Beta-1 adrenergic receptor (Cavia porcellus)
- Sequence (B0FL73 whole entry): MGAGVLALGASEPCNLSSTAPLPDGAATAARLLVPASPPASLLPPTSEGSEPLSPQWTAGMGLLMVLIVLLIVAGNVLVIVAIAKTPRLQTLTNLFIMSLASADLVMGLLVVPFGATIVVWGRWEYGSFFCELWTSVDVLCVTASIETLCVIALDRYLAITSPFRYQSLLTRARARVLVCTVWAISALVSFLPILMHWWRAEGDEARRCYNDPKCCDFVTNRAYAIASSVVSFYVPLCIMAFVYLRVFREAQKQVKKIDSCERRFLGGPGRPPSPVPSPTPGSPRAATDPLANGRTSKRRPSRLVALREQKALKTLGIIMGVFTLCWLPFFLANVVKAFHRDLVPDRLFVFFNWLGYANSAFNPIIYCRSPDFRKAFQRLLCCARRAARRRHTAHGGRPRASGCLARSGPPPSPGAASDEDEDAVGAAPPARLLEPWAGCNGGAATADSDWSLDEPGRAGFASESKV
- experiment description: Antagonist activity against beta-1 adrenergic receptor in isolated guinea pig atria
- Assay type: functional
observation type: pA10

compound | pA10
COc1ccc(OC)c(C(O)C(C)NC(C)(C)C)c1 (centres undefined) | 3.98
CC(C)NCC(O)COC(=O)c1cccs1 (centres undefined) | 5.11
CC(C)C(=O)OCC(O)CNC(C)(C)C (centres undefined) | 4.1
CC(C)NCC(O)COC(=O)Cc1cccs1 (centres undefined) | 4.28
CC(C)NCC(O)COC(=O)C(C)C (centres undefined) | 3.9
CC(C)(C)NCC(O)COC(=O)C1CCCCC1 (centres undefined) | 4.22
CC(C)(C)NCC(O)COC(=O)c1cccs1 (centres undefined) | 5.42
CCC(=O)OCC(O)CNC(C)(C)C (centres undefined) | 3.74
CC(C)NCC(O)COC(=O)C1CCCCC1 (centres undefined) | 4.2

---

- measured on: UniProtKB B0FL73
- experiment description: Antagonist activity against beta-1 adrenergic receptor in isolated guinea pig atria
- Format: functional
- condition summary: read-out: pA2 (converted)
observation type: Kb (µM)

[A] CCC(=O)OCC(O)CNC(C)(C)C (centres undefined)
[B] CC(C)NCC(O)COC(=O)Cc1cccs1 (centres undefined)
[C] CC(C)(C)NCC(O)COC(=O)c1cccs1 (centres undefined)
-- ask // ascending sort on Kb for the entries above In your reply, arrange the labels in the requested order.
-- reply C, B, A

---

- measured on: Beta-2 adrenergic receptor (Cavia porcellus)
- experiment description: Antagonist activity against beta-2 adrenergic receptor in isolated guinea pig trachea
- Format: functional, tissue-based
observation type: pA10

In the examples that follow, each entry is paired with its recorded pA10.
compound | measured on | pA10
CC(C)NCC(O)COC(=O)C(C)C (centres undefined) | Beta-2 adrenergic receptor (Cavia porcellus) | 4.52
CCC(=O)OCC(O)CNC(C)(C)C (centres undefined) | Beta-2 adrenergic receptor (Cavia porcellus) | 3.79
CC(C)(C)NCC(O)COC(=O)C1CCCCC1 (centres undefined) | Beta-2 adrenergic receptor (Cavia porcellus) | 4.71
COc1ccc(OC)c(C(O)C(C)NC(C)(C)C)c1 (centres undefined) | Beta-2 adrenergic receptor (Cavia porcellus) | 5.96
CC(C)NCC(O)COC(=O)Cc1cccs1 (centres undefined) | Beta-2 adrenergic receptor (Cavia porcellus) | 4.35

[A] CC(C)NCC(O)COC(=O)C1CCCCC1 (centres undefined)
[B] CC(C)(C)NCC(O)COC(=O)c1cccs1 (centres undefined)
-- ask Determine, for A and B , which has the greater value of pA10. Output the label that corresponds to your choice.
-- reply B
(B: 6.82, A: 4.62)

---

- measured on: UniProt:B0FL73
- experiment description: Antagonist activity against beta-1 adrenergic receptor in isolated guinea pig atria
- Format: functional
- condition summary: read-out: pA2 (converted)
observation type: Kb (µM)

molecule | measured on | observation type | units symbol | readout value
CC(C)NCC(O)COC(=O)C1CCCCC1 (stereo unspecified) | UniProt:B0FL73 | Kb | µM | 12.3

[A] CC(C)NCC(O)COC(=O)C(C)C (stereo unspecified)
[B] CC(C)C(=O)OCC(O)CNC(C)(C)C (stereo unspecified)
[C] CC(C)NCC(O)COC(=O)c1cccs1 (stereo unspecified)
[D] CC(C)(C)NCC(O)COC(=O)C1CCCCC1 (stereo unspecified)
[E] CC(C)NCC(O)COC(=O)c1ccc2c(c1)OCO2 (stereo unspecified)
-- ask # rank by Kb, ascending (min first) In your reply, arrange the labels in the requested order.
-- reply E, C, D, B, A
(E: 0.126 µM, C: 1.58 µM, D: 7.94 µM, B: 11.5 µM, A: 26.9 µM)
